Data provenance: a melting point compilation (Tetko et al.; mined from patent text by program, amines drawn as free bases though some values may be those of a salt)

This listing pairs molecules with measured melting point.

# molecule, metricName, result
records = [
    ("CCOC1=CCc2c(OC)ccc(OC)c2C1", "melting point", "102 to 103 °C"),
    ("CC(=O)NC1CCCCC1", "melting point", "108 to 109 °C"),
]

Prompt line: So what's the measured melting point for this one? Cc1cc(O)c(C2CCCCC2)cc1S(=O)c1cc(C2CCCCC2)c(O)cc1C
Response line: 151 to 153 °C

Prompt line: So what's the measured melting point for this one? COCCc1sc2ncnc(N)c2c1-c1ccc(NC(=O)Nc2cc(C(F)(F)F)ccc2F)cc1
Response line: 209 to 211 °C

Prompt line: So what's the measured melting point for this one? CC(=O)Cc1ccc2c(c1)C1(C)CCN(C)C1N2C (stereo not given)
Response line: 115 to 125 °C

====

metricName: melting point

Recorded melting point, per entry:
# smilesStr, melting point
data = [
    ("CSc1nc(OCC(F)(F)F)c(C#N)c(N2CCc3ccccc3CC2)n1", "108 to 110 °C"),
    ("O=C(c1ccc(C(F)(F)F)cc1)c1ccc(O)cn1", "> 260 °C"),
    ("CCOc1ccc(-c2nc(CCC(=O)c3ccccc3C(=O)OC)cs2)cc1OCC", "91.7 to 92.9 °C"),
    ("COC(C)=CC(=O)NC1CCCCCCC1", "116 °C"),
]

Continue with the compound presented below.
Prompt line: So what's the measured melting point for this one? CCCOC1=Nc2c(ncn2-c2ccccc2)C2=N[C@@H](Cc3ccccc3)CN12
Response line: 74 to 80 °C

====

This listing pairs compounds with measured melting point.

# compound, melting point
rows = [
    ("NC(=O)Nc1ccc(C2=NNC(=O)Cc3cc4c(cc32)OCO4)cc1", "238 to 241 °C"),
    ("COC(=O)c1ccc(S(C)(=O)=O)c(OS(=O)(=O)C(F)(F)F)c1Cl", "69 °C"),
    ("CCCCc1ccc(CCc2cc3c(s2)-n2c(C)nnc2CN=C3c2ccccc2Cl)cc1", "119 to 121 °C"),
    ("COc1cc(CC(=O)C(CNCCOc2ccc(C(=O)O)cc2OC)NC2CC2)ccc1NC(=O)Nc1ccccc1C (centres undefined)", "135 to 140 °C"),
    ("c1ccc2c(c1)ccc1nn[nH]c12", "245 to 247 °C"),
    ("CCCCc1ncc(/C=C(\\Cc2cccs2)C(=O)O)n1Cc1ccc(OC)c(C)c1", "140 to 141 °C"),
    ("CCOC(=O)c1ccc(C(=O)C2=NS(=O)(=O)c3ccccc3C2=O)cc1", "161 °C"),
    ("CCCc1nc(C(C)(C)O)c(-c2nnn[nH]2)n1Cc1ccc(-c2ccccc2C(=O)C(=O)O)cc1", "169 to 170 °C"),
]

Continue with the compound presented below.
Prompt line: So what's the measured melting point for this one? COCCOc1ccc(/C=C/C(=O)O)c(OCC2CCCO2)c1 (centres undefined)
Response line: 106 to 108 °C

====

This listing pairs compounds with measured melting point.

# compound, melting point
records = [
    ("COC(=O)c1c(C)nc(C)c(C(=O)Cl)c1-c1ccccc1[N+](=O)[O-]", "96 to 98 °C"),
    ("COc1cc2c(cc1OC)CC(N1CC(O)CC1=O)CC2 (stereo not given)", "178 to 179 °C"),
    ("CCOP(=O)(OCC)c1cccc(OCc2ccc3ccccc3c2)c1", "55 to 57 °C"),
    ("CC(C)(C)OC(=O)OCn1c(C(=O)Nc2nc(-c3ccccc3)c(CCO)s2)cc2ccccc21", "180 to 181 °C"),
]

Continue with the compound presented below.
Prompt line: So what's the measured melting point for this one? COc1cc(COc2nn(-c3ccccc3)cc2C=O)ccc1OCc1cn(-c2ccccn2)nc1C
Response line: 179 to 180 °C

====

metricName: melting point

Recorded melting point, per entry:
# molecule, metricName, result
rows = [
    ("CC(C)c1nc(C(C)C)c(CC=Cc2ccccc2)c(-c2ccc(F)cc2)c1CO", "melting point", "72 to 73 °C"),
    ("O=C1N(C(c2ccccc2)c2ccccc2)c2ccccc2C12COc1cc(F)c(F)cc12 (stereo not given)", "melting point", "213 to 216 °C"),
    ("Nc1ccc2ncnc(Nc3cccc(Cl)c3)c2c1", "melting point", "> 150 °C"),
    ("O=C(CC1CCOCC1)Oc1cc(=O)n(-c2ccccc2)c2ncccc12", "melting point", "169 to 171 °C"),
    ("O=C(O)c1ccc2sc3ccccc3c(=O)c2c1", "melting point", "310 to 316 °C"),
]

Prompt line: So what's the measured melting point for this one? ON=CC12CCCN(CCC1)C2
Response line: 115 to 117 °C

Prompt line: So what's the measured melting point for this one? N#CSc1nc(I)ncc1Cl
Response line: 183 to 186 °C

Prompt line: So what's the measured melting point for this one? CC(C)C(C#N)Nc1ccc(C(F)(F)F)cc1Cl (stereo not given)
Response line: 63.2 to 64.8 °C

Prompt line: So what's the measured melting point for this one? CC(C)(C)OC(=O)NNC1CCN(C(=O)OC(C)(C)C)CC1
Response line: 112 to 115 °C

Prompt line: So what's the measured melting point for this one? COc1ccc(C(C)(O)c2cc(OCc3ccccc3)ccc2OC)cn1 (stereo not given)
Response line: 53 to 54 °C

Prompt line: So what's the measured melting point for this one? CNC(=O)c1cc(Oc2ccc(NC(=O)Nc3ccc(Cl)c(C(F)(F)F)c3)cc2)ccn1
Response line: 82 to 85 °C

Prompt line: So what's the measured melting point for this one? CC1(C)CCC(=C[C@H]2[C@H](C(=O)O)C2(C)C)CC1 (relative stereo)
Response line: 96 °C

Prompt line: So what's the measured melting point for this one? COC(=O)c1ccc(CN2C(=O)C(CCO)Oc3ccccc32)cc1 (stereo not given)
Response line: 94 to 95 °C

Prompt line: So what's the measured melting point for this one? CNc1nc2ccc(CCc3nc4cc(OC)ccn4c3C)cc2o1
Response line: 203 to 205 °C

====

metricName: melting point

# compound, melting point
data = [
    ("O=c1[nH]c2cc3c(cc2nc1-c1ccccc1)OC(F)(F)O3", "291 to 292 °C"),
    ("Cc1ccc(N(C#N)C(=O)CCCCC(=O)N(C#N)c2ccc(C)cc2C)c(C)c1", "120 to 122 °C"),
    ("COC(=O)C(=Cc1cc(OC)cc(OC)c1)c1ccc(Oc2ccc(CC3SC(=O)NC3=O)cc2)cc1 (stereo not given)", "65 to 66 °C"),
    ("COC(=O)c1c(C(F)F)nc(C(F)(F)F)c(C(=O)Cl)c1CC(C)C", "71 to 75 °C"),
]

Continue with the compound presented below.
Prompt line: So what's the measured melting point for this one? CC(c1cccc(C(F)(F)F)c1N)S(C)(=O)=O (stereo not given)
Response line: 153 to 155 °C

====

This listing pairs compounds with measured melting point.

Recorded melting point, per entry:
# compound, melting point
data = [
    ("CC(=O)OCC1=C(C(=O)OC(C)(C)C)N2C(=O)C(N)C2SC1 (centres undefined)", "111 to 112 °C"),
    ("Cc1c(C#N)c(-c2ccc(C#N)cc2)c(C)n1Cc1cnc(Cl)c(COC(=O)CCC(=O)O)c1", "187 to 188 °C"),
    ("CCCn1c(-c2ccccc2)nc2cc(C#N)c(C#N)cc21", "183 to 185 °C"),
]

Continue with the compound presented below.
Prompt line: So what's the measured melting point for this one? COC(=O)C(O)C(CC1CCCCC1)NC(=O)C(Cc1c[nH]cn1)NC(=O)C(CC(=O)N1CCOCC1)Cc1cccc2ccccc12 (mixture of isomers)
Response line: 83 to 87 °C

====

This listing pairs compounds with measured melting point.

Recorded melting point, per entry:
# compound, melting point
measured = [
    ("CCOC(=O)c1ccc(C#CC(O)c2cc(-c3ccccc3)cc3c2C(C)(C)CCC3(C)C)cc1 (stereo not given)", "121 °C"),
    ("O=C1OC(=O)c2cc3ccc(C(F)(F)F)cc3c3cccc1c23", "310 to 312 °C"),
    ("O=C(CNC(=O)c1ccc(C(=O)C=C(c2cc(Cl)cc(C(F)(F)F)c2)C(F)(F)F)c2ccccc12)NCC(F)(F)F", "174 to 177 °C"),
]

Prompt line: So what's the measured melting point for this one? CC(=O)Oc1cccc2c1CC(=O)N2C
Response line: 109 to 111 °C

Prompt line: So what's the measured melting point for this one? CC(=O)OCc1cccc(Nc2nccc(-c3cnn(C(C)=O)c3-c3ccccc3)n2)c1
Response line: 133 to 134 °C

====

metricName: melting point (°C)
Give the number; °C is assumed, so skip it.

# molecule, metricName, quantitativeReadout
rows = [
    ("N#Cc1ccc(Cc2c[nH]nn2)cc1", "melting point", 83),
    ("CCCC1=C(C(=O)OCC)C(C)(c2ccccc2)c2c[nH]nc2N1 (stereo not given)", "melting point", 207),
    ("O=C(O)CCCc1cc2nc(Cl)ccc2n1S(=O)(=O)c1ccc(F)cc1", "melting point", 180),
]

Prompt line: So what's the measured melting point for this one? CC(OCc1cc2nc(Cl)ccc2n1S(=O)(=O)c1ccccc1)C(=O)O (stereo not given)
Response line: 150
